- target: Heat shock protein HSP90 (Homo sapiens, UniProt P07900+P08238)
Entries whose IC50 is below 40 nM take true (1); entries at or above 40 nM take false (0).

Example results:
CCNC(=O)c1noc(-c2cc(C(C)(C)C)c(O)cc2O)c1-c1ccc(CN2CCOCC2)cc1 ... true (1)
CCNC(=O)c1noc(-c2cc(Cl)c(O)cc2O)c1-c1ccc(CN2CCS(=O)(=O)CC2)cc1 ... true (1)
Oc1cc(O)c(-c2n[nH]cc2N2CCN(Cc3ccccc3)CC2)cc1Cl ... false (0)
CCNC(=O)c1noc(-c2cc(CCc3ccccc3)c(O)cc2O)c1-c1ccc(CN2CCOCC2)cc1 ... true (1)
CCNC(=O)c1[nH]nc(-c2cc(Cl)c(O)cc2O)c1-c1ccc(CNC(=O)C2CCCN(C)C2)cc1 (stereo not drawn) ... false (0)
CCNC(=O)c1[nH]nc(-c2cc(Cl)c(O)cc2O)c1-c1ccc(CNC(=O)C[C@@H]2CCCN2)cc1 ... false (0)

[Q] # check: IC50 < 40 nM for CCNC(=O)c1noc(-c2cc(-c3ccc(F)cc3)c(O)cc2O)c1-c1ccc(CN2CCCCC2)cc1
[A] true (1)

[Q] Could you do the same for CCNC(=O)c1noc(-c2cc(CC)c(O)cc2O)c1-c1ccc(CN(CC)CC)cc1 , please?
[A] true (1)

[Q] And the next one, CCNC(=O)c1[nH]nc(-c2cc(Cl)c(O)cc2O)c1-c1ccc(CNCCS(C)(=O)=O)cc1 ?
[A] true (1)

[Q] Now consider CCNC(=O)c1[nH]nc(-c2cc(Cl)c(O)cc2O)c1-c1ccc(CN2CCOCC2)cc1 and answer again.
[A] true (1)

[Q] Follow-up entry: CCNC(=O)c1[nH]nc(-c2cc(Cl)c(O)cc2O)c1-c1cccc(CN2CCOCC2)c1
[A] false (0)

[Q] Next entry: CCNC(=O)c1[nH]nc(-c2cc(Cl)c(O)cc2O)c1-c1cccc(CN2CCN(C(C)=O)CC2)c1
[A] false (0)

[Q] Moving on to the next compound: CCNC(=O)c1noc(-c2cc(Cl)c(O)cc2O)c1-c1ccc(CN2CCCCC2)cc1
[A] true (1)

[Q] CCNC(=O)c1noc(-c2cc(Cl)c(O)cc2O)c1-c1ccc(CN2CCC(O)CC2)cc1 , same question.
[A] true (1)

[Q] Try CCNC(=O)c1noc(-c2cc(C(C)C)c(O)cc2O)c1-c1ccc(CN(CC)CC)cc1 next.
[A] true (1)

[Q] What do you have for CC(=O)c1ccc(CNC(=O)c2c[nH]nc2-c2cc(Cl)c(O)cc2O)cc1 ?
[A] false (0)

###

- test_method_notes: Terminal half life in human HCT116 cells bearing NCr athymic mouse at 4 mg/kg, cassette dosing
- Type: ADME, organism-based, HCT-116
- Set-up: dose 4 mg/kg
- applied_conditions: in vivo, read-out: t1/2 lambda z (converted)
attribute_measured: half-life (h)
Report the value in h with no unit label.

CCNC(=O)c1noc(-c2cc(C(C)C)c(O)cc2O)c1-c1ccc(CN2CCOCC2)cc1 ... 9.5
CCNC(=O)c1noc(-c2cc(-c3ccccc3)c(O)cc2O)c1-c1ccc(CN2CCCCC2)cc1 ... 7.3
CCNC(=O)c1noc(-c2cc(Cl)c(O)cc2O)c1-c1ccc(OC)cc1 ... 3.9
CCNC(=O)c1noc(-c2cc(C(C)(C)C)c(O)cc2O)c1-c1ccc(CN2CCOCC2)cc1 ... 5

Attention now shifts to the item below.
[Q] Quick one: half-life of CCNC(=O)c1noc(-c2cc(-c3ccccc3)c(O)cc2O)c1-c1ccc(CN(CC)CC)cc1 ?
[A] 14.6

// provenance: ChEMBL document CHEMBL1140693
